- test_system: group 1: ZNF566 and ARNTL homologous peptide/HLA-A*02:01 complexes (mixed)
- run_description: SPR (BIAcore T200), crude scFv captured, mixed complexes flowed over
measurement_name: SPR binding level (RU)
One number for each entry, in RU.

Take a look at these entries with their results.
Exercise: Would you kindly share the measured SPR binding level for 25-AS170036 VL1VH1-57K108A (scFv) scFv: QSALTQPRSVSGSPGQSVTISCAGTSSDVGSENYVSWYQQHPGKAPKLMIYQVNKRASGVPDRFSGSKSGNTASLTISGLQAEDEADYYCASYRSSDHNIVFGGGTKLTVLGGGGSGGGGSGGGGSEVQLVESGGGLVQPGGSLRLSCAASGFTFSSYAMSWVRQAPGKGLEWVSTINSGTGKPYYADSVKGRFTISRDNSKNTLYLQMNSLRAEDTAVYYCAKNFFDGSWFLAPPAMDYWGQGTLVTVSSHHHHHH ?
Key: 10.9

Exercise: Moving on to the next binder: 22-AS170036 VL1VH1-57H108A (scFv) scFv: QSALTQPRSVSGSPGQSVTISCAGTSSDVGSENYVSWYQQHPGKAPKLMIYQVNKRASGVPDRFSGSKSGNTASLTISGLQAEDEADYYCASYRSSDHNIVFGGGTKLTVLGGGGSGGGGSGGGGSEVQLVESGGGLVQPGGSLRLSCAASGFTFSSYAMSWVRQAPGKGLEWVSTINSGTGHPYYADSVKGRFTISRDNSKNTLYLQMNSLRAEDTAVYYCAKNFFDGSWFLAPPAMDYWGQGTLVTVSSHHHHHH
Key: 26.6

Could you now look at the following binder, please?
Exercise: Would you kindly share the measured SPR binding level for 42-AS170036 VL1VH1-56Y98F108S (scFv) scFv: QSALTQPRSVSGSPGQSVTISCAGTSSDVGSENYVSWYQQHPGKAPKLMIYQVNKRASGVPDRFSGSKSGNTASLTISGLQAEDEADYYCASYRSSDFNIVFGGGTKLTVLGGGGSGGGGSGGGGSEVQLVESGGGLVQPGGSLRLSCAASGFTFSSYAMSWVRQAPGKGLEWVSTINSGTYSPYYADSVKGRFTISRDNSKNTLYLQMNSLRAEDTAVYYCAKNFFDGSWFLSPPAMDYWGQGTLVTVSSHHHHHH ?
Key: 6.3
